Reference source: paper PMC10816808

Parameter CC50 at 72 h: see the listing below.
test-description: MTT cytotoxicity test, HeLa
Format: cell-based
recorded-conditions: human, HeLa cells (cervical cancer), read-out: semitoxic concentration (CC50), HeLa

C/C(Nc1ccc(Br)cc1)=C1\C(=O)C=C2Oc3c(-c4csc(N/N=C/c5ccc(Br)cc5)n4)c(O)c(C)c(O)c3[C@@]2(C)C1=O	> 100 µM
C/C(NCCCc1cc(C(C)(C)C)c(O)c(C(C)(C)C)c1)=C1\C(=O)C=C2Oc3c(-c4csc(N/N=C/c5ccc(Br)s5)n4)c(O)c(C)c(O)c3[C@@]2(C)C1=O	> 100 µM

Request: What does the data say about its CC50 at 72 h? Entry: C/C(NCCCc1cc(C(C)(C)C)c(O)c(C(C)(C)C)c1)=C1\C(=O)C=C2Oc3c(-c4csc(N/N=C/c5ccc(Br)cc5)n4)c(O)c(C)c(O)c3[C@@]2(C)C1=O
Response: > 100 µM
